Source: paper PMC11245619

Target: WalK (erWalKR86C) (Staphylococcus aureus, UniProt Q6GKS6, R86C)
Construct: erWalK (residues 35-182) with R86C mutation
Assay: SPR (Biacore 8K, CM5 chip)

>  <compound>
CC(C)C(=O)c1c(O)c(C(C2=C(O)C(C)(C)C(=O)C(C)(C)C2=O)C(C)C)c(O)c2c1OC1=C(C(=O)C(C)(C)C(=O)C1(C)C)C2C(C)C (stereo not shown) [compound 22, 22]

>  <Kd>
73.8 µM

$$$$

###

Target: WalK (erWalK) (Staphylococcus aureus, UniProt Q6GKS6)
Construct: extracellular part of the receptor WalK (erWalK, residues 35-182)
Assay: SPR (Biacore 8K, CM5 chip)
pKd: −log10 of the molar value.

>  <compound>
CC(C)C(=O)c1c(O)c(C(C2=C(O)C(C)(C)C(=O)C(C)(C)C2=O)C(C)C)c(O)c2c1OC1=C(C(=O)C(C)(C)C(=O)C1(C)C)C2C(C)C (stereo not shown)

>  <pKd>
4.95

$$$$

###

System: Staphylococcus aureus ATCC 29213 (SA29213)
Construct: ATCC 29213
Assay: microbe, parasite or virus in culture
Parameters: broth microdilution MIC (CLSI), growth inhibition read by MTT
Details: ATCC29213, 24 h, read-out: MIC
Method: Antibacterial activities of synthetic compounds in vitro The MICs of the antibacterial agents for all strains were determined using the broth microdilution method according to CLSI guidelines. Wells of 96-well microtiter plates (Nunc, Thermo Fisher Scientific Inc., Roskilde) were inoculated with 100 µL of CAMH broth or CAMH broth with 3% lysed horse blood (S. pneumoniae only), containing serially-diluted antimicrobials and a final inoculum of 5 × 10^5 CFU/mL. […]
In this section we review reported MIC values for a set of compounds.

>  <compound>
CC1COc2c(N3CCN(C)CC3)c(F)cc3c(=O)c(C(=O)O)cn1c23 (stereo not shown)

>  <MIC [µg/mL]>
0.2

$$$$
>  <compound>
CN(C)c1cc(NC(=O)CNC(C)(C)C)c(O)c2c1C[C@H]1C[C@H]3[C@H](N(C)C)C(O)=C(C(N)=O)C(=O)[C@@]3(O)C(O)=C1C2=O

>  <MIC [µg/mL]>
0.312

$$$$
>  <compound>
CN[C@H](CC(C)C)C(=O)N[C@H]1C(=O)N[C@@H](CC(N)=O)C(=O)N[C@H]2C(=O)N[C@H]3C(=O)N[C@H](C(=O)N[C@H](C(=O)O)c4cc(O)cc(O)c4-c4cc3ccc4O)[C@H](O)c3ccc(c(Cl)c3)Oc3cc2cc(c3O[C@@H]2O[C@H](CO)[C@@H](O)[C@H](O)[C@H]2O[C@H]2C[C@](C)(N)[C@H](O)[C@H](C)O2)Oc2ccc(cc2Cl)[C@H]1O

>  <MIC [µg/mL]>
1

$$$$
>  <compound>
CC(=O)NC[C@H]1CN(c2ccc(N3CCOCC3)c(F)c2)C(=O)O1

>  <MIC [µg/mL]>
2.5

$$$$
>  <compound>
CC(C)C(=O)c1c(O)c(C(C2=C(O)C(C)(C)C(=O)C(C)(C)C2=O)C(C)C)c(O)c2c1OC1=C(C(=O)C(C)(C)C(=O)C1(C)C)C2C(C)C (stereo not shown)

>  <MIC [µg/mL]>
0.5

$$$$
>  <compound>
NC[C@H]1O[C@H](O[C@H]2[C@H](O)[C@@H](O[C@H]3O[C@H](CO)[C@@H](O)[C@H](N)[C@H]3O)[C@H](N)C[C@@H]2N)[C@H](O)[C@@H](O)[C@@H]1O

>  <MIC [µg/mL]>
10

$$$$
>  <compound>
C[C@@H](O)[C@H]1C(=O)N2C(C(=O)O)=C(S[C@@H]3CN[C@H](C(=O)N(C)C)C3)[C@H](C)[C@H]12

>  <MIC [µg/mL]>
0.312

$$$$
